# procedure.details: pKa by potentiometric titration (Sirius T3)
# Format: physicochemical
# experimental.context: pKa (pKa,1)
# class assignment by measured pKa: lower segment (below 4), middle segment (4 to below 8), upper segment (8 or more)

[[record]]
molecule = "CONC(=O)c1cccc2oc(=O)[nH]c12 [Compound 17]"
classification = "middle segment"

[[record]]
molecule = "CS(=O)(=O)Nc1ccccc1C(=O)O [Compound 2]"
classification = "lower segment"

[[record]]
molecule = "O=C(O)c1cccc2nn[nH]c12 [Compound 5]"
classification = "lower segment"

[[record]]
molecule = "CONC(=O)c1ccccc1O [Compound 7]"
classification = "middle segment"

[[record]]
molecule = "COC(=O)c1ccccc1O [Compound 6]"
classification = "upper segment"

[[record]]
molecule = "COC(=O)c1cccc2nc[nH]c12 [Compound 14]"
classification = "middle segment"

[[record]]
molecule = "O=C(O)c1cccc2nc[nH]c12 [Compound 4]"
classification = "lower segment"

[[record]]
molecule = "COC(=O)c1cccc2oc(=O)[nH]c12 [Compound 13]"
classification = "upper segment"

[[record]]
molecule = "CONC(=O)c1ccccc1NS(C)(=O)=O [Compound 16]"
classification = "middle segment"

[[record]]
molecule = "CONC(=O)c1cccc2nn[nH]c12 [Compound 19]"
classification = "middle segment"

[[record]]
molecule = "CONC(=O)c1cccc2nc[nH]c12 [Compound 18]"
classification = "middle segment"

[[record]]
molecule = "Oc1ccccc1C1(O)COC1 [Compound 9]"
classification = "upper segment"

[[record]]
molecule = "O=C(O)c1cccc2oc(=O)[nH]c12 [Compound 3]"
classification = "lower segment"

[[record]]
molecule = "Oc1ccccc1-c1nnn[nH]1 [Compound 8]"
classification = "middle segment"


* * *

# procedure.details: pKa by potentiometric titration (Sirius T3)
# Type: physicochemical
# experimental.context: pKa
Lab note: anything with pKa at or over 10 counts as label 1; the rest go in label 0.

[[record]]
smiles_string = "CS(=O)(=O)Nc1ccccc1C(=O)O"
classification = "label 1"

[[record]]
smiles_string = "O=C(O)c1cccc2nc[nH]c12"
classification = "label 0"

[[record]]
smiles_string = "Oc1ccccc1-c1nnn[nH]1"
classification = "label 1"

[[record]]
smiles_string = "CONC(=O)c1ccccc1O"
classification = "label 1"


* * *

# target.or.system: Recombinant human glyoxalase I (GLO1) (Homo sapiens)
# Construct: purchased R&D Systems 4959-GL
# Sequence (Q04760 2-184 limits assumed): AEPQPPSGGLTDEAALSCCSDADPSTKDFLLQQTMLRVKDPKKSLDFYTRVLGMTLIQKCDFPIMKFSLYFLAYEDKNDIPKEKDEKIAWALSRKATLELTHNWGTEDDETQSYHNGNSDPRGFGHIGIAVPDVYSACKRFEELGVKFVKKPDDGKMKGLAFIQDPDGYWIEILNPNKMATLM
# procedure.details: GLO1 enzyme inhibition assay (absorbance at 240 nm)
# Assay type: biochemical
# experimental.context: 100 μM; standard deviation in parentheses; read-out: %inhib GLO1
Let's look at some compounds and their measured inhibition at 100 µM.
experimental.readout: inhibition at 100 µM

[[record]]
compound = "CS(=O)(=O)Nc1ccccc1C(=O)O"
reported = "18%"

[[record]]
compound = "COC(=O)c1cccc2oc(=O)[nH]c12"
reported = "31%"

[[record]]
compound = "OC1(c2cccc3nc[nH]c23)COC1"
reported = "10%"

[[record]]
compound = "OC1(c2cccc3nn[nH]c23)COC1"
reported = "19%"

[[record]]
compound = "CONC(=O)c1cccc2nn[nH]c12"
reported = "17%"

[[record]]
compound = "COC(=O)c1ccccc1O"
reported = "10%"

[[record]]
compound = "c1cc(-c2nnn[nH]2)c2[nH]cnc2c1"
reported = "50%"

[[record]]
compound = "Oc1ccccc1-c1nnn[nH]1"
reported = "24%"

[[record]]
compound = "CONC(=O)c1cccc2nc[nH]c12"
reported = "20%"

[[record]]
compound = "CS(=O)(=O)Nc1ccccc1-c1nc2ccccc2s1"
reported = "44%"

[[record]]
compound = "CONC(=O)c1ccccc1O"
reported = "22%"

[[record]]
compound = "CONC(=O)c1cccc2oc(=O)[nH]c12"
reported = "33%"

[[record]]
compound = "Oc1ccccc1-c1nc2ccccc2s1"
reported = "94%"

[[record]]
compound = "O=C(O)c1cccc2oc(=O)[nH]c12"
reported = "29%"

[[record]]
compound = "CS(=O)(=O)Nc1ccccc1-c1ncccn1"
reported = "19%"

[[record]]
compound = "Oc1ccccc1-c1ncccn1"
reported = "15%"

[[record]]
compound = "O=c1[nH]c2c(-c3nnn[nH]3)cccc2o1"
reported = "39%"

[[record]]
compound = "Oc1ccccc1C1(O)COC1"
reported = "9%"

[[record]]
compound = "O=C(O)c1cccc2nc[nH]c12"
reported = "38%"

[[record]]
compound = "COC(=O)c1cccc2nn[nH]c12"
reported = "22%"

[[record]]
compound = "CONC(=O)c1ccccc1NS(C)(=O)=O"
reported = "16%"

[[record]]
compound = "COC(=O)c1cccc2nc[nH]c12"
reported = "19%"

[[record]]
compound = "O=C(O)c1ccccc1O [Compound 1, Salicylic acid, reference compound]"
reported = "22%"

[[record]]
compound = "O=C(O)c1cccc2nn[nH]c12"
reported = "20%"


* * *

# target.or.system: Human recombinant MMP-3 catalytic domain (Homo sapiens)
# Construct: Human recombinant MMP-3 catalytic domain was purchased; purchased ENZO Life Sciences BML-SE109-9090
# Sequence (P08254 100-272 limits assumed): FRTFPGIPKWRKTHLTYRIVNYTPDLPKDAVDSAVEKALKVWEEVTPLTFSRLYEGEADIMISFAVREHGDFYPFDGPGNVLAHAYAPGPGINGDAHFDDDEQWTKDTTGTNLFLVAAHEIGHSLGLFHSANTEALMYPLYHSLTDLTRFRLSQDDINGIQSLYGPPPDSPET
# procedure.details: MMP-3 enzyme inhibition assay (chromogenic substrate, 412 nm)
# Assay type: biochemical
# experimental.context: standard deviation in parentheses, read-out: %inhib MMP-3
# Method: To probe the selectivity of the salicylate MBIs, the library was screened against matrix metalloproteinase-3 (MMP-3) at fragment concentrations of 100 μM (Table 2). Human recombinant MMP-3 catalytic domain was purchased from ENZO Life Sciences (catalog # BML-SE109-9090). […] Absorbance was monitored at 412 nm using a Bio-Tek ELx 808 colorimetric plate reader, and measurements were recorded every minute for 10 min. […]
experimental.readout: inhibition at 100 µM (%)

[[record]]
molecule = "CONC(=O)c1cccc2oc(=O)[nH]c12"
target_or_system = "Human recombinant MMP-3 catalytic domain (Homo sapiens)"
experimental_readout = "inhibition at 100 µM"
units_text = "%"
reported = 0

[[record]]
molecule = "COC(=O)c1ccccc1NS(C)(=O)=O"
target_or_system = "Human recombinant MMP-3 catalytic domain (Homo sapiens)"
experimental_readout = "inhibition at 100 µM"
units_text = "%"
reported = 12

[[record]]
molecule = "Oc1ccccc1-c1ncccn1"
target_or_system = "Human recombinant MMP-3 catalytic domain (Homo sapiens)"
experimental_readout = "inhibition at 100 µM"
units_text = "%"
reported = 0

[[record]]
molecule = "O=C(O)c1cccc2nn[nH]c12"
target_or_system = "Human recombinant MMP-3 catalytic domain (Homo sapiens)"
experimental_readout = "inhibition at 100 µM"
units_text = "%"
reported = 0

[[record]]
molecule = "CONC(=O)c1ccccc1O"
target_or_system = "Human recombinant MMP-3 catalytic domain (Homo sapiens)"
experimental_readout = "inhibition at 100 µM"
units_text = "%"
reported = 0

[[record]]
molecule = "CONC(=O)c1ccccc1NS(C)(=O)=O"
target_or_system = "Human recombinant MMP-3 catalytic domain (Homo sapiens)"
experimental_readout = "inhibition at 100 µM"
units_text = "%"
reported = 0

[[record]]
molecule = "O=C(O)c1ccccc1O [Compound 1, Salicylic acid, reference compound]"
target_or_system = "Human recombinant MMP-3 catalytic domain (Homo sapiens)"
experimental_readout = "inhibition at 100 µM"
units_text = "%"
reported = 8

[[record]]
molecule = "COC(=O)c1cccc2oc(=O)[nH]c12"
target_or_system = "Human recombinant MMP-3 catalytic domain (Homo sapiens)"
experimental_readout = "inhibition at 100 µM"
units_text = "%"
reported = 0

[[record]]
molecule = "Oc1ccccc1-c1nc2ccccc2s1"
target_or_system = "Human recombinant MMP-3 catalytic domain (Homo sapiens)"
experimental_readout = "inhibition at 100 µM"
units_text = "%"
reported = 0

[[record]]
molecule = "CONC(=O)c1cccc2nn[nH]c12"
target_or_system = "Human recombinant MMP-3 catalytic domain (Homo sapiens)"
experimental_readout = "inhibition at 100 µM"
units_text = "%"
reported = 0

[[record]]
molecule = "CONC(=O)c1cccc2nc[nH]c12"
target_or_system = "Human recombinant MMP-3 catalytic domain (Homo sapiens)"
experimental_readout = "inhibition at 100 µM"
units_text = "%"
reported = 0

[[record]]
molecule = "OC1(c2cccc3nc[nH]c23)COC1"
target_or_system = "Human recombinant MMP-3 catalytic domain (Homo sapiens)"
experimental_readout = "inhibition at 100 µM"
units_text = "%"
reported = 4

[[record]]
molecule = "CS(=O)(=O)Nc1ccccc1C(=O)O"
target_or_system = "Human recombinant MMP-3 catalytic domain (Homo sapiens)"
experimental_readout = "inhibition at 100 µM"
units_text = "%"
reported = 11

[[record]]
molecule = "CS(=O)(=O)Nc1ccccc1-c1nc2ccccc2s1"
target_or_system = "Human recombinant MMP-3 catalytic domain (Homo sapiens)"
experimental_readout = "inhibition at 100 µM"
units_text = "%"
reported = 0

[[record]]
molecule = "Oc1ccccc1-c1nnn[nH]1"
target_or_system = "Human recombinant MMP-3 catalytic domain (Homo sapiens)"
experimental_readout = "inhibition at 100 µM"
units_text = "%"
reported = 6

[[record]]
molecule = "CS(=O)(=O)Nc1ccccc1-c1ncccn1"
target_or_system = "Human recombinant MMP-3 catalytic domain (Homo sapiens)"
experimental_readout = "inhibition at 100 µM"
units_text = "%"
reported = 0

[[record]]
molecule = "c1cc(-c2nnn[nH]2)c2[nH]cnc2c1"
target_or_system = "Human recombinant MMP-3 catalytic domain (Homo sapiens)"
experimental_readout = "inhibition at 100 µM"
units_text = "%"
reported = 74

[[record]]
molecule = "O=C(O)c1cccc2nc[nH]c12"
target_or_system = "Human recombinant MMP-3 catalytic domain (Homo sapiens)"
experimental_readout = "inhibition at 100 µM"
units_text = "%"
reported = 3

[[record]]
molecule = "O=c1[nH]c2c(-c3nnn[nH]3)cccc2o1"
target_or_system = "Human recombinant MMP-3 catalytic domain (Homo sapiens)"
experimental_readout = "inhibition at 100 µM"
units_text = "%"
reported = 0

[[record]]
molecule = "CS(=O)(=O)Nc1ccccc1-c1nnn[nH]1"
target_or_system = "Human recombinant MMP-3 catalytic domain (Homo sapiens)"
experimental_readout = "inhibition at 100 µM"
units_text = "%"
reported = 3

[[record]]
molecule = "COC(=O)c1cccc2nc[nH]c12"
target_or_system = "Human recombinant MMP-3 catalytic domain (Homo sapiens)"
experimental_readout = "inhibition at 100 µM"
units_text = "%"
reported = 7

[[record]]
molecule = "COC(=O)c1ccccc1O"
target_or_system = "Human recombinant MMP-3 catalytic domain (Homo sapiens)"
experimental_readout = "inhibition at 100 µM"
units_text = "%"
reported = 0

[[record]]
molecule = "Oc1ccccc1C1(O)COC1"
target_or_system = "Human recombinant MMP-3 catalytic domain (Homo sapiens)"
experimental_readout = "inhibition at 100 µM"
units_text = "%"
reported = 0

[[record]]
molecule = "COC(=O)c1cccc2nn[nH]c12"
target_or_system = "Human recombinant MMP-3 catalytic domain (Homo sapiens)"
experimental_readout = "inhibition at 100 µM"
units_text = "%"
reported = 0

[[record]]
molecule = "O=C(O)c1cccc2oc(=O)[nH]c12"
target_or_system = "Human recombinant MMP-3 catalytic domain (Homo sapiens)"
experimental_readout = "inhibition at 100 µM"
units_text = "%"
reported = 0

[[record]]
molecule = "OC1(c2cccc3nn[nH]c23)COC1"
target_or_system = "Human recombinant MMP-3 catalytic domain (Homo sapiens)"
experimental_readout = "inhibition at 100 µM"
units_text = "%"
reported = 0

